# Test system: C. elegans
# TEST PROTOCOL: microbe, parasite or virus in culture
# DETAILS: Caenorhabditis elegans, 24 h, read-out: Percentage of motility inhibition 24 h, Table S2, C. elegans SS assay, 110 μM, 24 h, averages of 4 data points
READOUT: inhibition at 110 µM (%)
Numbers only, in %.

MOLECULE	READOUT	OBSERVED RESULT
N[C@@H](CO)C(=O)O [L-Serine]	inhibition at 110 µM	0

Hi! Can you tell me inhibition at 110 µM for each of these molecules?
1. C/C=C1/C[C@@H](C)[C@@](C)(O)C(=O)OCC2=CC[N+]3([O-])CC[C@@H](OC1=O)[C@@H]23 (some centres unmarked) [Senecionine N‐oxide]
2. COc1c(O)cc2oc(-c3ccccc3)cc(=O)c2c1O [Oroxylin A]
3. O=C(CO)[C@@H](O)[C@H](O)[C@H](O)CO [Fructose]
4. N[C@@H]1CON=C1O [D‐Cycloserine]

Solution:
1. 43
2. 12
3. 3
4. 13
